- Read-out: growth arrest and DNA damage 45 (GADD45B), GADD45B (gene 4616)
- experiment: LTEA_HepaRG_GADD45B: Life Technologies and Expression Analysis (LTEA) Assay for growth arrest and DNA damage 45 (GADD45B) using HepaRG (AID 2283461)
- setupConditions: mRNA level, 48 h; actives raise or lower the signal
Activity calls are given as the source filed them. Rule for the calls: active = hit-call score of the fitted dose curve at least 0.9, where 1 is the maximum; inactive = score below 0.9.
Returns: one label drawn from active, inactive

q: What was the test verdict on "CCN(Cc1cccnc1)C(=O)c1cccc(Cl)c1[C@]1(C)C(=O)N(Cc2ccc(OC)cc2OC)c2ccc(Cl)cc21" ?
a: inactive

q: What was the test verdict on "CC(C)(c1cc(Br)c(O)c(Br)c1)c1cc(Br)c(O)c(Br)c1" ?
a: active

q: What was the test verdict on "OCCO" ?
a: inactive

q: What was the test verdict on "O=C(O)Cc1cc(I)c(Oc2ccc(O)c(I)c2)c(I)c1" ?
a: active

q: What was the test verdict on "CCCCCCCC[Si](OCC)(OCC)OCC" ?
a: inactive

q: What was the test verdict on COCC(C)OCC(C)OCC(C)O (stereo unspecified) ?
a: inactive

====

- Read-out: Interleukin-1 alpha (IL1a), IL1A (gene 3552)
- experiment: BSK_LPS_IL1a: BioMAP Diversity Plus: LPS Assay for Interleukin-1 alpha (IL1a) Biomarker Activity (AID 2283080)
- setupConditions: primary human HUVEC with PBMC; actives raise or lower the signal
Activity calls are given as the source filed them. Rule for the calls: active = hit-call score of the fitted dose curve at least 0.9, where 1 is the maximum; inactive = score below 0.9.
Returns: one label drawn from active, inactive

q: What was the test verdict on "CC/C(=C(/CC)c1ccc(O)cc1)c1ccc(O)cc1" ?
a: active

q: What was the test verdict on "O=CCCCC=O" ?
a: active

q: What was the test verdict on "CN(C[C@@H](CC[N+]12CCC(C3CCCCC3)(CC1)CC2)c1ccc(Cl)c(Cl)c1)C(=O)c1cc(C(F)(F)F)cc(C(F)(F)F)c1" ?
a: active

q: What was the test verdict on "CN1C(=O)CC[C@H]1c1cccnc1" ?
a: inactive

q: What was the test verdict on "CCCCOC(=O)c1ccc(O)cc1" ?
a: inactive

q: What was the test verdict on "Cc1cccc2ccccc12" ?
a: inactive

q: What was the test verdict on "CN(C)C(=O)C1(N2CCCCC2)CCN(CC[C@@]2(c3ccc(Cl)c(Cl)c3)CN(C(=O)c3ccccc3)CCO2)CC1" ?
a: active

q: What was the test verdict on "CC(C)(C)c1cc(/C=C2\SC(N)=NC2=O)cc(C(C)(C)C)c1O" ?
a: active

q: What was the test verdict on "COc1cc(C(=O)NC2CCN(C)CC2)ccc1Nc1ncc2c(n1)N(C1CCCC1)CC(F)(F)C(=O)N2C" ?
a: active

q: What was the test verdict on "COc1cccc([C@H](O)C2CCN(CCc3ccc(F)cc3)CC2)c1OC" ?
a: inactive

q: What was the test verdict on "CCCOC(=O)c1cc(O)c(O)c(O)c1" ?
a: inactive

q: What was the test verdict on "CC[C@@H]1C[C@H](N(Cc2cc(C(F)(F)F)cc(C(F)(F)F)c2)C(C)=O)c2cc(C(F)(F)F)ccc2N1C(=O)OC(C)C" ?
a: inactive

q: What was the test verdict on "O=C=NCCCCCCN=C=O" ?
a: inactive

q: What was the test verdict on "O=c1c(-c2ccc(O)cc2)coc2cc(O)cc(O)c12" ?
a: active

q: What was the test verdict on "CCCCCc1ccc(N)cc1" ?
a: inactive

q: What was the test verdict on OC12N=C(c3ccccc3)SC1Cc1cc(Cl)ccc12 (stereo not drawn) ?
a: active

q: What was the test verdict on "O=C1O[C@H]([C@@H](O)CO)C(O)=C1O" ?
a: inactive

q: What was the test verdict on "CCCCCCCCN(C)CCCCCCCC" ?
a: inactive

q: What was the test verdict on "NCc1cccc(C2CCN(C(=O)c3ccc(C#Cc4ccccc4F)o3)CC2)c1" ?
a: active

q: What was the test verdict on "CCN(Cc1cccc(S(=O)(=O)O)c1)c1ccc(C(=C2C=CC(=[N+](CC)Cc3cccc(S(=O)(=O)O)c3)C=C2)c2ccccc2S(=O)(=O)[O-])cc1" ?
a: inactive

q: What was the test verdict on "Cc1cn([C@H]2C[C@H](N=[N+]=[N-])[C@@H](CO)O2)c(=O)[nH]c1=O" ?
a: inactive

q: What was the test verdict on "O=C(O)c1ccccc1C(=O)OCc1ccccc1" ?
a: inactive

q: What was the test verdict on "Clc1ccccc1C(c1ccccc1)(c1ccccc1)n1ccnc1" ?
a: active

// data source = PubChem BioAssay (EPA / NIEHS)
